meta.source: the NTF2 design screens of Basanta et al. (2020)

- protocolDescription: protease stability score; higher = more stable; yeast display proteolysis, trypsin and chymotrypsin;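 also: relative to predicted unfolded state with 0 unfolded-like and 1 meaning tenfold more protease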
For each of the sequences below, state its protease stability score.
Keep the answer to the number alone.

protease stability score lookup needed for SEEEELFEIAIRIFLHILHTGNEEDFHRFADPNMRMIIGDKEHHGWEEVFKWFEFVFRHARIKDTEIKSVRIINGRVHNEGRVNININGVEVIKEVHLVSEKVDGKWVLKRVEIR , thanks.
1.52

Quick one: REEEHHLEKLARHIVHAILTGDERYLEKLMDPNTRVEIIDGEYRIERHGMHNIVHLLLEIRIHHFEIKRITTYNGQVDIDGEIDGEYGDKRDNRHVEIRFHFVNGRTKSFKVTWR
1.31

Quick one: SEEEREDEEMFRKLWEAYKTGDEKTLSELVDPNARLRFENREFVGRESIKEFYRRIREKFKGIRIEDVHLRDRKEQGEFIHIDIEINRFVGDKYENVKVEIVLLKFDGRWIIHEIRIK
2.69

Quick one: SEENEAAKLVIEKLNHSWKTGDWRLSEKLMDPDVRVHINGQDLHGREQARKFLEEIRLHMRDVKVKEIRIVDGRLETHGHVHIELIFDGRVFRIERDVESVVLKFNGKWTLESLEVI
1.21

Quick one: DEDHKHWKKLTEILFHVFRTGDWHLLEKLADPNVRTVVNGVEIHGREHLADIMWLHKETLGIDHMELRSIEYQGEKFIIHAEIDVNGRKVDVHIRSVIIDGRMHSISIEVHHH
1.99

Quick one: SEDEKKRDESLELILRAILTGDEDLLKTLADPHVMFDWNGKELHGMNVFIHWVRHMGVDHRNIESKDKRIQGDKVRLDMTSNEHAENHEHRYRVELIIKKIDGRWIIKEFIIR
1.36

Quick one: SQEERTHRELLRLLLESLTTGDEDTLRHLMDPHMIIRIGDKHFHGWDWIVHLFRKLGADHMEVEIRDEDIIDGRIRHHGSLHIHVDGRTEHIETILFVEKVNGRWVIRSVEFR
1.64

Quick one: SDLDRLLEEMAKRFVEVMLTGDEEIMKELIDPNARVDWDGVEIHGWKEISEWLKEEIERQENYRYEFEFRDLDVIGNKAVFFTDLHFNINGRRIRTHSVYKVNVVNGKVKHVHVEIR
1.21

Quick one: DEEERAMEHMVRHLVDDIHTGDWRSLYRFLDPDVRLHVGDKRFHGRDTIVRLLLELLQTWGIDRIHSEVKHVHLQGEKIEAHTKDKYGDFEFSVLVDIFKIDGKWVIERREIS
1.08

Quick one: SEDEEHLKELSEMLIKNWLTGDEKKWDRLADPHAKLRINVNGRDRRRVGMENVHRALHHLFHELRIKHLRDKDSNLINGVSHIEGESTILVGDKEIDTRIVIHLLIIDGRLEEERIVIE
0.178

Quick one: DEHTDYIREILRLLSEVVRTGDEDSLRRLLDPDARIVINGVDLIGMEHWFRLMFEIRHFAEDSKLEHSEVQGDKVIAHGRYHGEYEFDGRRRRHDTEVEMHVHKIDGRWYVRSLSIR
1.72

Quick one: DEEEELTKRWIDHLLRLWNTGDEHHFLKMADPHVRIEQGDKEHIGREEMYRWLQQFKNIRLHIDDIDIQGDFLNIDGYINFNGVHREAKVHIRVINGKLHSIIIRIK
1.3

Quick one: DEDDEVSKFVAHVLSRVFHTGDEENLQKLADPNVRLHIGDKHHIGRETFIRWLRHFLDRADHVDSDVHDVRSIDGRIWADTRLRLEINGQTIEREVIIVIHKINGRWILHRIEIR
1.49

Quick one: SEEEHVLEFIVKLFLEAWLTGDEDIIDWLVDPHTRLHVNGVDLHGREEVSHFLAHIRVEQLHIDDERITNINGVLHVDIKTEERFDVNGRVTRTKSELHIFIRKVDGRWFIQVFKIVYH
0.332

Quick one: DEMDEHARDLFELLLRIWLTGDEHELRELADPHVRIHVGDKNHVGMDKFAHEFIRHVQERGVRIEIRIRDHHAINGVSHSDGEIVLNYDGREYRMDTKIIMVIYNGKVKELRFHIR
1.39

Quick one: SEEEKETRKNLHEFLESIITGDEDHLVNMMDPHARIEVGDWELVGRHKFHEFASKVKNLKLHIRNTEVYGDKVHIDSEINFNGQRRDMVVHAEKINGKWILKHTRYQ
1.17

Quick one: NEDDKHAKHLLDLLIRTFITGDEHTLMNLLDPHTRYHQGEKELHGMEMLLHVERHHGATVHHFHVKSVRVIGDKIQFHVHVDHTIDGKRIRTDIDLWMEKVDGRWIVREIRIH
0.815

Quick one: TESEKEAHDAVKRSIDSWLTGDEHDMAELLDPNVRLEIGDKTFIGREEFVKWLKDVREKFKGVRLHIRDYRVHVVGDKVRVEIDIQEDYGDKFHDVTLVFILRKIDGRWHNQSVEVRIE
1.58

Quick one: DEEEELTKRFLDIMLHNLKTGNEEEISKMADPNVKLDIGDKENHGRESMSRAWHEELRRLGAKHIDVRSVELQGDKLIIRMRLEVDGRTFEVLIIIIVVDGRLKHIQFKSH
0.704

Quick one: DDKDQHEEVEKFARNVVSGNSDELRKQMDKDVRANVGDKTLRGREEVADFWKHMRDRIDHAEIKEIRFHNGEARIVMQFVHNGRTKQINIVMEFHDGHVKRLRVEDG
2.58

Quick one: DEDEDLLRRFTELWNHIYLTGDERMLHHLVDPHARLDVNGKEMHGRELLIKWMVKEIRDLGADHYRIDIKHYHFVDGRAHVQSTLEVDIGDKRITFYIRLILLKVNGRWVVHTIYYH
1.55

Quick one: DEEERERKHIAEEFAHELETGDEERFVELADPNVRSDINGKQYHGRDRFRDWQEQWHEKVKNLRFEIERWRVIGDFVRIDVRIRIDGRRHNVEIIQVVVNGRITFLEIRVK
0.799
